Property: melting point; scope: individual molecules
Where a name gives a salt, the structure may show the parent alone.

Some molecules with recorded melting point:
Cc1cc(-c2ccnn2-c2ccc(S(N)(=O)=O)c(F)c2C(F)F)ccc1-c1cscn1 (as salt: hydrochloride) [Example 195]; 204.3 °C
Cc1nc(-c2ccc(-c3cscn3)c(C)c2)c(-c2ccc(S(C)(=O)=O)c(F)c2)o1 [Example 173]; 177 to 178 °C
Cc1ccc(-c2ccc(S(C)(=O)=O)c(F)c2)n1-c1ccc(-c2cscn2)cc1 [Example 151]; 215 °C
CS(=O)(=O)c1ccc(-n2nc(C(F)(F)F)cc2-c2ccc(-c3ccco3)c(Cl)c2)cc1 (as salt: hydrochloride) [Example 71]; 143 to 145 °C
CS(=O)(=O)c1ccc(-n2nc(C(F)(F)F)cc2-c2ccc(-n3ccnc3)cc2)cc1 [Example 66]; 183 to 184 °C
Cc1nc(-c2ccc(-c3cc(C(F)(F)F)nn3-c3ccc(S(C)(=O)=O)c(F)c3)cc2)cs1 [Example 102]; 139 to 141 °C
NS(=O)(=O)c1ccc(C2=C(c3ccc(-c4cscn4)cc3)C(=O)OC2)cc1F [Example 167]; 194.2 °C
CS(=O)(=O)c1ccc(-n2nc(C(F)(F)F)cc2-c2ccc(-c3cncs3)cc2)cc1 [Example 24]; 169 to 170 °C
Cc1ccc(-c2ccc(S(C)(=O)=O)c(F)c2)n1-c1ccc(-c2ccco2)cc1 [Example 35]; 179 to 182 °C
CS(=O)(=O)c1ccc(-n2nc(C(F)(F)F)cc2-c2ccc(-c3cscn3)cc2)cc1Cl [Example 158]; 103 to 107 °C

Exam item: // lookup melting point for Cc1ccc(-c2ccc(S(C)(=O)=O)cc2)n1-c1ccc(-c2ccco2)cc1 [Example 44]
Marked response: 145 to 147 °C

Exam item: Now this one: CS(=O)(=O)c1ccc(-n2nc(C(F)(F)F)cc2-c2ccc(-c3cocn3)cc2)cc1 (as salt: hydrochloride) [Example 95]
Marked response: 175 to 177 °C

Exam item: Similarly, NS(=O)(=O)c1ccc(-n2nc(C(F)(F)F)cc2-c2ccc(-c3ccco3)cc2)cc1F (as salt: hydrochloride) [Example 137] ?
Marked response: 151 °C

Exam item: Try CS(=O)(=O)c1ccc(-n2cc(C(F)(F)F)nc2-c2ccc(-c3ccco3)cc2)cc1 [Example 53] next.
Marked response: 82 to 84 °C

Exam item: Now this one: CS(=O)(=O)c1ccc(-n2nc(C(F)(F)F)cc2-c2ccc(-c3cnco3)cc2)cc1 (as salt: hydrochloride) [Example 76]
Marked response: 178 to 180 °C

* * *

Structures can show the parent of a compound that is named as a salt.
observed property: melting point

Field: example entries. Status: answers known.
Cc1cc(-c2cc(C(F)(F)F)nn2-c2ccc(S(N)(=O)=O)cc2)ccc1-c1cocn1 (as salt: hydrochloride) [Example 116]; 112 to 114 °C
Cc1nc(-c2ccc(-c3cccs3)cc2)c(-c2ccc(S(C)(=O)=O)cc2)o1 [Example 50]; 183 to 185 °C
NS(=O)(=O)c1ccc(-n2nc(C(F)(F)F)cc2-c2ccc(-c3ccco3)c(Cl)c2)cc1F [Example 138]; 171.8 °C

Now for another entry.
Exam item: So what's the measured melting point for this one? COc1cc(-c2cc(C(F)(F)F)nn2-c2ccc(S(N)(=O)=O)c(F)c2)ccc1-c1cscn1 (as salt: hydrochloride) [Example 175]
Marked response: 97 to 99 °C

* * *

Counter-ions that a name gives are not always drawn.
Reported melting point values are given for each entry in this list.

Cc1cc(-c2cc(C(F)(F)F)nn2-c2ccc(S(C)(=O)=O)cc2)ccc1-c1cscn1 (as salt: hydrochloride); 140 to 142 °C
Cc1cc(-c2ccc(-c3ccco3)cc2)n(-c2ccc(S(C)(=O)=O)cc2)c1; 193 to 194 °C
CC(=O)Nc1cnn(-c2ccc(S(C)(=O)=O)c(F)c2)c1-c1ccc(-c2cscn2)cc1; 225.2 °C
Cc1cc(C2=C(c3ccc(S(C)(=O)=O)cc3)C(C)(C)OC2=O)ccc1-c1cscn1; 180.3 °C

Exam item: Quick one: melting point of COc1cc(-n2nc(C(F)(F)F)cc2-c2ccc(-c3ccco3)cc2)ccc1S(C)(=O)=O (as salt: hydrochloride) ?
Marked response: 138.9 °C

Exam item: Now consider NS(=O)(=O)c1ccc(-n2nc(C(F)(F)F)cc2-c2ccc(-c3ccco3)cc2)cc1Cl (as salt: hydrochloride) and answer again.
Marked response: 192.6 °C

Exam item: Also, Cc1cc(-c2noc(C)c2-c2ccc(S(N)(=O)=O)c(F)c2)ccc1-c1cscn1 please.
Marked response: 114 to 116 °C

* * *

Structures can show the parent of a compound that is named as a salt.
observed property: melting point

Record excerpt, results attached:
Cc1cc(-n2c(C)ccc2-c2ccc(S(C)(=O)=O)cc2)ccc1-c1ccco1 [Example 40]; 160 to 162 °C
Cc1ccc(-c2ccc(S(C)(=O)=O)cc2)n1-c1ccc(-c2nccs2)cc1 [Example 49]; 190 to 191 °C
CS(=O)(=O)c1ccc(-n2nc(C(F)(F)F)cc2-c2ccc(-c3cccs3)cc2)cc1F [Example 86]; 75 to 76 °C
Cc1cc(-n2nc(C(F)(F)F)cc2-c2ccc(-c3ccco3)cc2)ccc1S(N)(=O)=O (as salt: hydrochloride) [Example 143]; 137.4 °C
Cc1ccc(-c2ccc(S(C)(=O)=O)cc2)n1-c1ccc(-c2ccsc2)cc1 [Example 46]; 187 to 188 °C
CS(=O)(=O)c1ccc(-n2nccc2-c2ccc(-c3ccco3)cc2)cc1F [Example 162]; 155 to 156 °C
Cc1onc(-c2ccc(-c3cscn3)cc2)c1-c1ccc(S(C)(=O)=O)c(F)c1 [Example 168]; 130 °C
NS(=O)(=O)c1ccc(-n2nc(C(F)(F)F)cc2-c2ccc(-c3cocn3)cc2)cc1 (as salt: hydrochloride) [Example 118]; 170 to 172 °C
CS(=O)(=O)c1ccc(C2=C(c3ccc(-c4cscn4)cc3)C(=O)OC2)cc1 [Example 182]; 236.8 °C
CS(=O)(=O)c1ccc(-n2nc(C(F)(F)F)cc2-c2ccc(-c3ncco3)cc2)cc1 (as salt: hydrochloride) [Example 97]; 190 to 192 °C

Exam item: Requested field: melting point. Item: Cc1cc(-c2cc(C(F)(F)F)nn2-c2ccc(S(C)(=O)=O)c(F)c2)ccc1-c1cscn1 [Example 106]
Marked response: 112 to 114 °C

Exam item: Record: CS(=O)(=O)c1ccc(-n2nc(C(F)(F)F)cc2-c2ccc(-c3ccco3)cc2)cc1F [Example 60]
Marked response: 129 to 130 °C

Exam item: Follow-up entry: Cc1cc(-n2nc(C(F)(F)F)cc2-c2ccc(-c3ccco3)cc2)ccc1S(C)(=O)=O (as salt: hydrochloride) [Example 157]
Marked response: 135 to 139 °C

Exam item: Also NS(=O)(=O)c1ccc(-n2nc(C(F)(F)F)cc2-c2ccc(-c3cscn3)c(O)c2)cc1F (as salt: hydrochloride) [Example 174] ?
Marked response: 224 to 226 °C

Exam item: Another compound to check: NS(=O)(=O)c1ccc(-n2nc(C(F)(F)F)cc2-c2ccc(-c3ccco3)cc2)c(Cl)c1 (as salt: hydrochloride) [Example 140]
Marked response: 190.3 °C

* * *

Structures can show the parent of a compound that is named as a salt.
Documented melting point across a set of compounds

Solved entries (count: 3):
Cc1cc(-c2cc(C(F)(F)F)nn2-c2ccc(S(C)(=O)=O)cc2)ccc1-c1ccco1 (as salt: hydrochloride); 174 to 176 °C
CS(=O)(=O)c1ccc(-n2nc(C(=O)O)cc2-c2ccc(-c3ccco3)cc2)cc1F; 171.5 to 173 °C
Cc1noc(-c2ccc(-c3cscn3)cc2)c1-c1ccc(S(N)(=O)=O)cc1; 236 °C

Exam item: So what's the measured melting point for this one? NS(=O)(=O)c1ccc(-n2nc(C(F)(F)F)cc2-c2ccc(-c3cscn3)cc2)cc1F (as salt: hydrochloride)
Marked response: 168 to 170 °C

Exam item: Input Cc1ccc(-c2ccc(S(C)(=O)=O)cc2)n1-c1ccc(-c2ccco2)c(Cl)c1
Marked response: 127 to 131 °C

Exam item: Do the same for CS(=O)(=O)c1ccc(-n2cc(C(F)(F)F)nc2-c2ccc(-c3cccs3)cc2)cc1 please
Marked response: 95 to 97 °C

Exam item: Please give the result for COc1cc(-n2nc(C(F)(F)F)cc2-c2ccc(-c3ccco3)cc2)ccc1S(N)(=O)=O (as salt: hydrochloride) too.
Marked response: 206.7 °C

* * *

Structures can show the parent of a compound that is named as a salt.
Entries and their melting point values follow.

CS(=O)(=O)c1ccc(-n2nc(C(F)(F)F)cc2-c2ccc(-c3ccco3)cc2)cc1C(F)(F)F (as salt: hydrochloride) [Example 135]; 159 to 160 °C
CS(=O)(=O)c1ccc(C2=C(c3ccc(-c4cccs4)cc3)C(=O)OC2)cc1 [Example 33]; 198 to 201 °C
Cc1scnc1-c1ccc(-c2cc(C(F)(F)F)nn2-c2ccc(S(C)(=O)=O)c(F)c2)cc1 [Example 104]; 170 to 172 °C

In the following, a different compound is considered.
Exam item: Looking for the measured melting point of NS(=O)(=O)c1ccc(-n2nc(C(F)(F)F)cc2-c2ccc(-c3cscn3)c(C(F)(F)F)c2)cc1F [Example 176] , can you help?
Marked response: 140 to 142 °C
